Source listed as patent US20250206732A1.

Each item that follows carries a reported DC50.
- target.entity: AsPC-1 HiBiT-KRASG12D (Homo sapiens, UniProt P01116, G12D)
- Construct: insert the HiBiT tag onto the N-terminus of one or more of the endogenous KRAS alleles; endogenous in cells; host or cells: AsPC-1 (ATCC CRL-1682), CRISPR-Cas9 knock-in clone, one tagged allele
- Sequence (P01116 1-188 isoform P01116-2 G12D): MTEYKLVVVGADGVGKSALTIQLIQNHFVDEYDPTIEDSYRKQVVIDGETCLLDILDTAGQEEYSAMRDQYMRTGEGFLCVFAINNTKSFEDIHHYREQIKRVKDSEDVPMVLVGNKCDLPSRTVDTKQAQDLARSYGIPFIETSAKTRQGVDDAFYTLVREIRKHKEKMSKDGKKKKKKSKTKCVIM
- experiment.description: HiBiT degradation assay (G12D), AsPC-1 HiBiT-KRASG12D cells
- Format: cell-based
- assay.conditions: AsPC-1 HiBiT-KRASG12D cells, 24 hours treatment, HiBiT luminescence

{"compound": "CCc1cccc2cc(O)cc(-c3ncc4c(N5CC6CCC(C5)N6)nc(OC[C@]56CCCN5[C@H](COC(=O)N5CCN(c7cc([C@@H](C(=O)N8C[C@H](O)C[C@H]8C(=O)N[C@@H](C)c8ccc(C#N)cc8)C(C)C)on7)CC5)CC6)nc4c3F)c12", "DC50": "> 3000 nM"}
{"compound": "Cc1ncsc1-c1ccc([C@H](C)NC(=O)[C@@H]2C[C@@H](O)CN2C(=O)[C@@H](c2cc(N3CCN(C(=O)OC[C@H]4CC[C@]5(COc6nc(N7CC8CCC(C7)N8)c7cnc(-c8cccc9ccc(F)c(F)c89)c(F)c7n6)CCCN45)CC3)no2)C(C)C)cc1 (relative stereo)", "DC50": "< 600 nM"}
{"compound": "CCc1cccc2cc(O)cc(-c3ncc4c(N5CC6CCC(C5)N6)nc(OCCN5CCC(OCCOCC(=O)N[C@H](C(=O)N6C[C@H](O)C[C@H]6C(=O)N[C@@H](C)c6ccc(-c7scnc7C)cc6)C(C)(C)C)CC5)nc4c3F)c12", "DC50": "1000 to 3000 nM"}
{"compound": "CCc1cccc2cc(O)cc(-c3ncc4c(N5CCCCCC5)nc(OC[C@@]56CCCN5[C@H](COC(=O)N5CCN(c7cc([C@H](C(=O)N8C[C@H](O)C[C@H]8C(=O)N[C@@H](C)c8ccc(-c9scnc9C)cc8)C(C)C)on7)CC5)CC6)nc4c3F)c12", "DC50": "< 600 nM"}
{"compound": "CCc1cccc2cc(O)cc(-c3ncc4c(N5CC6CCC(C5)N6)nc(OCCN5CCC(COCC(=O)N[C@H](C(=O)N6C[C@H](O)C[C@H]6C(=O)N[C@@H](C)c6ccc(-c7scnc7C)cc6)C(C)(C)C)CC5)nc4c3F)c12", "DC50": "< 600 nM"}
{"compound": "CCc1cccc2cc(O)cc(-c3ncc4c(N5CC6CCC(C5)N6)nc(OC[C@@H]5CC[C@@H](COC(=O)N6CCN(c7cc([C@H](C(=O)N8C[C@H](O)C[C@H]8C(=O)N[C@@H](C)c8ccc(-c9scnc9C)cc8)C(C)C)on7)[C@H](C)C6)N5C)nc4c3F)c12", "DC50": "< 600 nM"}
{"compound": "C#Cc1c(F)ccc2cc(O)cc(-c3ncc4c(N5CC6CCC(C5)N6)nc(OCCN5CCC(C6CCN(c7cc([C@H](C(=O)N8C[C@H](O)C[C@H]8C(=O)N[C@@H](C)c8ccc(-c9scnc9C)cc8)C(C)C)on7)CC6)CC5)nc4c3F)c12", "DC50": "< 600 nM"}
{"compound": "CCc1cccc2cc(O)cc(-c3ncc4c(N5CC6CCC(C5)N6C=O)nc(OCCN5CCC6(CC5)CN(c5cc([C@H](C(=O)N7C[C@H](O)C[C@H]7C(=O)N[C@@H](C)c7ccc(-c8scnc8C)cc7)C(C)C)on5)C6)nc4c3F)c12", "DC50": "> 3000 nM"}
{"compound": "C#Cc1cccc2cc(O)cc(-c3ncc4c(N5CC6CCC(C6)C5)nc(OCCN5CCC(COc6cc([C@H](C(=O)N7C[C@H](O)C[C@H]7C(=O)N[C@@H](C)c7ccc(-c8scnc8C)cc7)C(C)C)on6)CC5)nc4c3F)c12", "DC50": "> 3000 nM"}
{"compound": "CCc1cccc2cc(O)cc(-c3ncc4c(N5CC6CCC(C5)N6)nc(OC[C@@]56CCCN5[C@H](COC(=O)N5CCN(c7cc([C@H](C(=O)N8C[C@H](O)C[C@H]8C(=O)N[C@@H](C)c8ccc(-c9scnc9C)cc8)C(C)C)on7)C[C@@H]5C)CC6)nc4c3F)c12", "DC50": "< 600 nM"}
{"compound": "C#Cc1c(F)ccc2cc(O)cc(-c3ncc4c(N5CC6CCC(C5)N6)nc(OCCN5CCC6(CC5)CN(c5cc([C@@H](C(=O)N7C[C@H](O)C[C@H]7C(=O)N[C@@H](C)c7ccc(-c8ccnn8C)cc7)C(C)C)on5)C6)nc4c3F)c12 (relative stereo)", "DC50": "1000 to 3000 nM"}
{"compound": "CCc1cccc2cc(O)cc(-c3ncc4c(N5CC6CCC(C5)N6)nc(OCCN5CCC(F)(CN6CCN(c7cc([C@@H](C(=O)N8C[C@H](O)C[C@H]8C(=O)N[C@@H](C)c8ccc(-c9ccnn9C)cc8)C(C)C)on7)CC6)CC5)nc4c3F)c12", "DC50": "1000 to 3000 nM"}
{"compound": "CCc1cccc2cc(O)cc(-c3ncc4c(N5CC6CCC(C5)N6)nc(OC[C@]56CCCN5[C@H](COC(=O)N5CCN(c7cc([C@H](C(=O)N8C[C@H](O)C[C@H]8C(=O)N[C@@H](C)c8ccc(-c9scnc9C)cc8)C(C)C)on7)[C@H](C)C5)CC6)nc4c3F)c12", "DC50": "< 600 nM"}
{"compound": "CCc1cccc2cc(O)cc(-c3ncc4c(N5CC6CCC(C5)N6)nc(O[C@H](C)CN5CCC(COc6cc([C@H](C(=O)N7C[C@H](O)C[C@H]7C(=O)N[C@@H](C)c7ccc(-c8scnc8C)cc7)C(C)C)on6)CC5)nc4c3F)c12", "DC50": "< 600 nM"}
{"compound": "CCc1cccc2cc(O)cc(-c3ncc4c(N5CC6CCC(C5)N6)nc(OCCN5CCC6(CC5)CN(c5cc([C@@H](C(=O)N7C[C@H](O)C[C@H]7C(=O)N[C@@H](C)c7ccc(-c8scnc8C)cc7)C(C)C)on5)C6)nc4c3F)c12", "DC50": "1000 to 3000 nM"}
